- system: ERα (Homo sapiens)
- Sequence (P03372 whole entry): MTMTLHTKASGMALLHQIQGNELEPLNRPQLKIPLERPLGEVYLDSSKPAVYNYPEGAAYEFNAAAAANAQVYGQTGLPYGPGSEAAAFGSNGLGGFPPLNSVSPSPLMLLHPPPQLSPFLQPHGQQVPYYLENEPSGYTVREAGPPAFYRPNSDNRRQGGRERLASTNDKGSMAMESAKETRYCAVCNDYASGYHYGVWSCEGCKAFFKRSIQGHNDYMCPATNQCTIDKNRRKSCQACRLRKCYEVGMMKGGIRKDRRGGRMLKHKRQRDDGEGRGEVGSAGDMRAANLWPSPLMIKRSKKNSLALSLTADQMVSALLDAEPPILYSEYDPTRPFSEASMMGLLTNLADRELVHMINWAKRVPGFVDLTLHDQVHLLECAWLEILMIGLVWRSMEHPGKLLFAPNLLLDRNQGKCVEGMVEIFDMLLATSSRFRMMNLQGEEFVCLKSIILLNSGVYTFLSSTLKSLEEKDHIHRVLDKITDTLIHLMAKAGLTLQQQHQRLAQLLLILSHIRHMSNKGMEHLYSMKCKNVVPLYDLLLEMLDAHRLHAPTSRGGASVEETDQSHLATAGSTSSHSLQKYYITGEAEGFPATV
- experiment_notes: Degradation of ERα in MCF-7 cells (immunoblotting, 4 h)
- Format: cell-based
- stated_conditions: 10nM compound
Reported Degradation rate (%) of ERα in MCF-7 cells is given for each of the following molecules.
Only the number, expressed in %, is required.

// solved cases for Degradation rate (%) of ERα in MCF-7 cells follow
[[record]]
molecule = "O=C1CCC(N2Cc3c(ccc4c3OCC43CCN(C(=O)C4CCC5(CC4)CN(c4ccc([C@@H]6c7ccc(O)cc7CC[C@@H]6c6ccccc6)cc4)C5)CC3)C2=O)C(=O)N1 (stereo partly drawn)"
system = "ERα (Homo sapiens)"
units_text = "%"
measured_number = 46

[[record]]
molecule = "C[C@@H]1CC2(CCN(c3ccc([C@@H]4c5ccc(O)cc5CC[C@@H]4c4ccccc4)cc3)CC2)CN1CC(=O)N1CCC2(CC1)COc1c2ccc2c1CN(C1CCC(=O)NC1=O)C2=O (stereo partly drawn)"
system = "ERα (Homo sapiens)"
units_text = "%"
measured_number = 72


// Degradation rate (%) of ERα in MCF-7 cells lookup, key: O=C1CCC(N2Cc3cc4c(cc3C2=O)CCC2(CCN(C3C[C@@H]5CN(c6ccc(C7c8ccc(O)cc8CCC7c7ccccc7)cc6)C[C@@H]5C3)CC2)O4)C(=O)N1 (stereo partly drawn)
8
